Provide the reported solubility at 15 min of each item.
test: Water solubility (sonicated suspension, HPLC); assay type: physicochemical; details: thermodynamic from solid; in water;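 note: concentration in the clear supernatant quantified by HPLC peak area against a DMSO standard solution of the same compound, corrected for dilution and injection volume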
Field note: include the unit after the figure.

# input Look up solubility at 15 min: O=[N+]([O-])c1cn2c(n1)OC[C@@H](OCc1ccc(-c3ccc(OC(F)(F)F)cc3)c(F)c1)C2 [Compound 15]
# output 0.33 µg/mL

# input Look up solubility at 15 min: Cn1nc(-c2ccc(OC(F)(F)F)cc2)cc1CO[C@@H]1COc2nc([N+](=O)[O-])cn2C1 [Compound 11]
# output 5.3 µg/mL

# input Look up solubility at 15 min: O=[N+]([O-])c1cn2c(n1)OC[C@@H](OCc1ccc(Cc3ccc(OC(F)(F)F)cc3)cc1)C2 [Compound 17]
# output 0.16 µg/mL

# input Look up solubility at 15 min: O=C(O[C@@H]1COc2nc([N+](=O)[O-])cn2C1)N1CCN(c2ccc(OC(F)(F)F)cc2)CC1 [Compound 20]
# output 17 µg/mL

# input Look up solubility at 15 min: O=[N+]([O-])c1cn2c(n1)OC[C@@H](OCc1ccc(-c3ccc(OC(F)(F)F)c(F)c3)cc1)C2 [Compound 2]
# output 0.1 µg/mL

# input Look up solubility at 15 min: O=[N+]([O-])c1cn2c(n1)OC[C@@H](OCc1ccc(C#Cc3ccc(OC(F)(F)F)cc3)cn1)C2 [Compound 18]
# output 0.36 µg/mL

# input Look up solubility at 15 min: O=[N+]([O-])c1cn2c(n1)OC[C@@H](OCc1ccc(-c3ccc(OC(F)(F)F)cc3Cl)cc1)C2 [Compound 1]
# output 0.66 µg/mL

# input Look up solubility at 15 min: O=[N+]([O-])c1cn2c(n1)OC[C@@H](Oc1ccc(-c3ccc(OC(F)(F)F)cc3)cc1)C2 [Compound 13]
# output 3 µg/mL

# input Look up solubility at 15 min: O=[N+]([O-])c1cn2c(n1)OC[C@@H](OCc1ccc(-c3ccc(C(F)(F)F)cn3)cc1F)C2 [Compound 14]
# output 1.2 µg/mL

# input Look up solubility at 15 min: O=[N+]([O-])c1cn2c(n1)OC[C@@H](OCc1ccc(-c3ccc(C(F)(F)F)nc3)cc1F)C2 [Compound 23]
# output 5.7 µg/mL

# input Look up solubility at 15 min: O=[N+]([O-])c1cn2c(n1)OC[C@@H](OCc1ccc(-c3ccc(OC(F)(F)F)cc3)cc1F)C2 [Compound 12]
# output 1.4 µg/mL

====

assay: In vivo pharmacokinetics in mice; settings: mouse, in vivo; CD-1 mice, oral, 40 mg/kg, plasma;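 note: plasma and lung samples quantified by LC-MS/MS, dosing as a suspension in aqueous carboxymethylcellulose with Tween 80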
So basically, if Cmax comes in under 6000 ng/mL it's 1, and if it's 6000 ng/mL or more it's 0.

# input Is it true that Cmax reported for O=[N+]([O-])c1cn2c(n1)OC[C@@H](OCc1ccc(-c3ccc(OC(F)(F)F)c(F)c3)cc1)C2 is less than 6000 ng/mL?
# output 0

# input Is it true that Cmax reported for O=[N+]([O-])c1cn2c(n1)OC[C@@H](OCc1ccc(-c3ccc(OC(F)(F)F)cc3Cl)cc1)C2 is less than 6000 ng/mL?
# output 0

# input Is it true that Cmax reported for O=[N+]([O-])c1cn2c(n1)OC[C@@H](OCc1ccc(-c3ccc(C(F)(F)F)nc3)cc1F)C2 is less than 6000 ng/mL?
# output 1

# input Is it true that Cmax reported for O=[N+]([O-])c1cn2c(n1)OC[C@@H](OCc1ccn(-c3ccc(OC(F)(F)F)cc3)n1)C2 is less than 6000 ng/mL?
# output 1

# input Is it true that Cmax reported for O=[N+]([O-])c1cn2c(n1)OC[C@@H](OCc1ccc(-c3ccc(OC(F)(F)F)c(Cl)c3)nc1)C2 is less than 6000 ng/mL?
# output 1

# input Is it true that Cmax reported for O=[N+]([O-])c1cn2c(n1)OC[C@@H](OCc1ccc(OC(F)(F)F)cc1)C2 [PA-824, reference compound] is less than 6000 ng/mL?
# output 1

# input Is it true that Cmax reported for O=[N+]([O-])c1cn2c(n1)OC[C@@H](OCc1ccc(-c3ccc(C(F)(F)F)nc3)cc1)C2 is less than 6000 ng/mL?
# output 0

# input Is it true that Cmax reported for O=[N+]([O-])c1cn2c(n1)OC[C@@H](OCc1ccc(-c3ccc(OC(F)(F)F)cc3)nc1)C2 is less than 6000 ng/mL?
# output 0

# input Is it true that Cmax reported for O=[N+]([O-])c1cn2c(n1)OC[C@@H](OCc1ccc(-c3ccc(OC(F)(F)F)cc3)nn1)C2 is less than 6000 ng/mL?
# output 1

# input Is it true that Cmax reported for O=[N+]([O-])c1cn2c(n1)OC[C@@H](OCc1ccc(-c3ccc(C(F)(F)F)cn3)cc1F)C2 is less than 6000 ng/mL?
# output 1

# input Is it true that Cmax reported for O=[N+]([O-])c1cn2c(n1)OC[C@@H](OCc1ccc(-c3ccc(OC(F)(F)F)cc3)cn1)C2 is less than 6000 ng/mL?
# output 0

# input Is it true that Cmax reported for Cn1nc(-c2ccc(OC(F)(F)F)cc2)cc1CO[C@@H]1COc2nc([N+](=O)[O-])cn2C1 is less than 6000 ng/mL?
# output 1

# input Is it true that Cmax reported for O=[N+]([O-])c1cn2c(n1)OC[C@@H](OCc1cnc(-c3ccc(OC(F)(F)F)cc3)nc1)C2 is less than 6000 ng/mL?
# output 1

# input Is it true that Cmax reported for O=[N+]([O-])c1cn2c(n1)OC[C@@H](OCc1ccc(C#Cc3ccc(OC(F)(F)F)cc3)cn1)C2 is less than 6000 ng/mL?
# output 1

Hello, the source for this data is patent US9198913B2, in case you need it.
